molecular target: eosinophil peroxidase (EPO) (Homo sapiens, UniProt P11678); construct: Eosinophil peroxidase was purified from human white blood cells to a purity index (A413/A280) of at least 1.0; from tissue; host or cells: human white blood cells; assay: Inhibition of EPO-mediated bromination, monochlorodimedone (MCD) assay; format: biochemical; details: training and test set compounds of the pharmacophore model; read-out: EPO IC50
Sequence (P11678 251-715 limits assumed): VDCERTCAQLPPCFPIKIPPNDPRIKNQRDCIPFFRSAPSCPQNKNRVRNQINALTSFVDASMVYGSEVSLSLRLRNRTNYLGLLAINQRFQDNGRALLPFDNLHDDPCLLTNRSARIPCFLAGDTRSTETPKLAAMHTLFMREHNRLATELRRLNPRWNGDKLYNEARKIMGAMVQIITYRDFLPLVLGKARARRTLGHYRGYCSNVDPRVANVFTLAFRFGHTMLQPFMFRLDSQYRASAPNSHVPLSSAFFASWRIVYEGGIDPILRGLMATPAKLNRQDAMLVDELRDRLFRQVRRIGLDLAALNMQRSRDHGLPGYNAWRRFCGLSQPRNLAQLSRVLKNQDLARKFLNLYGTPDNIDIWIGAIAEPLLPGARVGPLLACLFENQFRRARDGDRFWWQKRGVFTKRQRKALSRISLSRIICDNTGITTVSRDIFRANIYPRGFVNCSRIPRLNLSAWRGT
Sequence (P11678 140-250 limits assumed): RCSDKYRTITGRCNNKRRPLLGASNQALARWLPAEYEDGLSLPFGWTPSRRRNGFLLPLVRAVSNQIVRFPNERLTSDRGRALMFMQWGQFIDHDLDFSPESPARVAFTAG
Classification field. Basis: IC50. Definitions: small value: < 100 nM; mid value: ≥ 100 nM and < 1000 nM; large value: ≥ 1000 nM

Any idea which band NNC(=O)c1nn(-c2ccccc2)cc1O [Compound 4, reference compound] is in?
mid value

Any idea which band NNC(=O)c1ccccc1O [Compound 3, reference compound] is in?
small value

Any idea which band NNc1cc(Cl)ccc1[N+](=O)[O-] [Compound 5, reference compound] is in?
mid value

Any idea which band C=CCNc1nc2c(c(=O)[nH]c(=O)n2C)n1CC(O)CO (stereo not drawn) [Compound 7, reference compound] is in?
large value

Any idea which band NNC(=O)c1ccc(O)cc1O [Compound 9, reference compound] is in?
large value

Any idea which band COc1ccc2[nH]cc(CCNC(C)=O)c2c1 [Compound 8, reference compound] is in?
large value

Any idea which band NNC(=O)c1nn(-c2ccccc2C(F)(F)F)cc1O [Compound 1, reference compound] is in?
small value

Any idea which band Cn1c(=O)[nH]c(=O)c2c1nc(NCCCO)n2CCO [Compound 2, reference compound] is in?
mid value
